target under test: human A2a receptor (Homo sapiens, UniProt P29274)
Construct: purchased Perkin-Elmer RBHA2AM400UA; host or cells: HEK293
Sequence (P29274 whole entry): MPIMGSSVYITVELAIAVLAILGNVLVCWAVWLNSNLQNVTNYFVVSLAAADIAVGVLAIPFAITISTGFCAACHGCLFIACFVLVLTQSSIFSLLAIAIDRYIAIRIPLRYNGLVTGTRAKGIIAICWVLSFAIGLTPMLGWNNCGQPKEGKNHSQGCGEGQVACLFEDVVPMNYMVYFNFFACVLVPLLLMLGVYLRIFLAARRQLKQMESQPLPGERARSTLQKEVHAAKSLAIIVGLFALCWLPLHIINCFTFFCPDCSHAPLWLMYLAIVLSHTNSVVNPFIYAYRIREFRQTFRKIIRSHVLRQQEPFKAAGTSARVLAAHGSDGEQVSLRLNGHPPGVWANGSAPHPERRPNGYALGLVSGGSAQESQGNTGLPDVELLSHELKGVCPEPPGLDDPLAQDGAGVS
protocol text: A2a receptor competition binding assay (Scintillation Proximity, tritiated radioligand)
study conditions: membranes from HEK293 cells expressing the human A2a receptor; 0.5 nM tritiated ligand; SPA beads; one hour at room temperature; read-out: A2a EC50
pEC50: −log10 of the molar value.
property label: pEC50

Here is how some compounds turned out for pEC50.
COc1cccc2c1nc(N)n1nc(CCN3CCN(c4ccccc4)CC3)nc21 [Ex-166] ... 7.87
COc1cccc2c1nc(N)n1nc(CN3CCN(CCF)CC34CC4)nc21 [Ex-192] ... 6.82
COCCOc1ccc(N2CCN(Cc3nc4c5ccccc5nc(N)n4n3)CC2)cc1 [Ex-161] ... 6.28

(1) COc1ccccc1N1CCN(Cc2nc3c4cccc(OC)c4nc(N)n3n2)CC1(C)C [Ex-187]
(2) COc1cccc2c1nc(N)n1nc(CN3CCN(c4ccccc4C(F)(F)F)CC3C)nc21 (centres unmarked) [Ex-47]
(3) COc1cccc2c1nc(N)n1nc(CN3CCN(c4ccnc(C(F)(F)F)c4)CC3C)nc21 (centres unmarked) [Ex-97]
(4) COc1cccc2c1nc(N)n1nc(CN3CCN(c4ccc5c(c4)c(C)nn5C)CC3C)nc21 (centres unmarked) [Ex-128]
Ranking field: pEC50; order: falling. Please express your ranking as an ordered list of the labels.
4, 1, 3, 2
(4: 9.02, 1: 8.24, 3: 7.74, 2: 7.23)

(1) COc1cccc2c1nc(N)n1nc(CN3CCN(c4cc(C#N)ccn4)CC3C)nc21 (centres unmarked) [Ex-114]
(2) COc1cccc2c1nc(N)n1nc(CN3CCN(Cc4ccc(N(C)C)cc4)CC3C)nc21 (centres unmarked) [Ex-32]
(3) COc1cc(F)ccc1N1CCN(Cc2nc3c4cccc(OC)c4nc(N)n3n2)C(C)C1 (centres unmarked) [Ex-96]
I would appreciate it if you could sort these 3 compounds by pEC50, starting from the smallest number. Please express your ranking as an ordered list of the labels.
2, 1, 3

(I) COc1cccc2c1nc(N)n1nc(CN3CCN(Cc4nc5ccncc5n4C)CC3C)nc21 (centres unmarked) [Ex-13]
(II) C[C@@H]1CN(c2ccc(F)cc2)CCN1Cc1nc2c3cccc(Br)c3nc(N)n2n1 [Ex-157]
Returns: the argument ( I or II ) having the larger pEC50. Response format: the label of the selected entry.
II
(II: 7.84, I: 7.06)

(1) COc1cccc2c1nc(N)n1nc(C(C)N3CCN(c4ccc(F)cc4)C[C@H]3C)nc21 (some centres unmarked) [Ex-50]
(2) COc1cccc2c1nc(N)n1nc(CN3CCN(c4ccc(C)cc4)CC3C)nc21 (centres unmarked) [Ex-66]
Returns: the argument ( 1 or 2 ) having the larger pEC50. Response format: the label of the selected entry.
2
(2: 8.52, 1: 6.86)
